- SUBJECT OF TEST: JAK1-JH2 protein (aa 561-860, in-house) (Homo sapiens, UniProt P23458)
- Construct: JAK1-JH2 protein (aa 561-860, in-house)
- Sequence (P23458 561-860): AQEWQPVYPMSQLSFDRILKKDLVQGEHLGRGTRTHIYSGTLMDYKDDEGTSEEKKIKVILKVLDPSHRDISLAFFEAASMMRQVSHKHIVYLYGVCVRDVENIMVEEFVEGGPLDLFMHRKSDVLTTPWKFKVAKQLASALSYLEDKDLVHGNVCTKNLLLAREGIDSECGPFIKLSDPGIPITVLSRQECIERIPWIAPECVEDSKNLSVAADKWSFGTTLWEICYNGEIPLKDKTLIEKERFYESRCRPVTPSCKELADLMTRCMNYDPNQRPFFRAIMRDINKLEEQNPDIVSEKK
- PROTOCOL SUMMARY: JAK1-JH2 biochemical assay (HTRF probe displacement)
Each entry below carries its recorded IC50.
OBSERVED PROPERTY: IC50 (nM)

CC(=O)Nc1cc(Nc2cccc(S(C)(=O)=O)c2)c(-c2ccc(C(C)(C)O)cn2)cn1 [Example H1] = 1.4
CS(=O)(=O)c1cccc(Nc2cc(N)ncc2-c2ccccn2)c1 [Example B19] = 257
CC(=O)Nc1cc(Nc2cccc(S(C)(=O)=O)n2)c(-c2ccccn2)cn1 [Example B5] = 0.31
CC(=O)Nc1cc(Nc2ccccc2S(C)(=O)=O)c(-c2ccccn2)cn1 [Example B15] = 234
CS(=O)(=O)c1cccc(Nc2cc(NC(=O)C3CC3)ncc2-c2ccccn2)c1 [Example B20] = 76
CC(=O)Nc1cc(Nc2cccc(S(C)(=O)=O)c2)c(-c2ccccn2)cn1 [Example B1] = 7.4
CC(=O)Nc1cc(Nc2ccccc2)c(-c2ccccn2)cn1 [Example B3] = 9
CC(=O)Nc1cc(Nc2cccc(S(C)(=O)=O)c2)c(C2CCCO2)cn1 (stereo not shown) [Example A2] = 828
CC(=O)Nc1cc(Nc2ncccc2S(C)(=O)=O)c(-c2ccccn2)cn1 [Example B14] = 145
CC(=O)Nc1cc(Nc2cccc(S(C)(=O)=O)c2)c(-c2cccnn2)cn1 [Example A1] = 15
CC(=O)Nc1cc(Nc2cccc(S(C)(=O)=O)c2)c(-c2cc(C)nc(C)n2)cn1 [Example A6] = 18
COc1cccc(Nc2cc(NC(C)=O)ncc2-c2ccccn2)c1 [Example B13] = 18
CC(=O)Nc1cc(Nc2cccc(S(C)(=O)=O)c2)c(-c2cnccn2)cn1 [Example A5] = 59
CC(=O)Nc1cc(Nc2cccc(S(C)(=O)=O)c2)c(-c2cnc(C)cn2)cn1 [Example A4] = 59
CC(=O)Nc1cc(Nc2cccc(S(C)(=O)=O)c2)c(-c2ccc(N3CCOCC3=O)cn2)cn1 [Example G1] = 4.9

###

- Test system: JAK2, TYK2/p-STAT4 (Tyr693) activated by IL-12 in NK-92 cell line
- PROTOCOL SUMMARY: IL-12-JAK2, TYK2/p-STAT4 (Tyr693) inhibition IC50 cellular assay
- Type: cell-based
- RECORDED CONDITIONS: Cellular assay; pSTAT5/GM-CSF IC50 vs pSTAT4/IL-12 IC50
OBSERVED PROPERTY: Selectivity fold (TYK2/JAK2)

CC(=O)Nc1cc(Nc2cc(OC(C)C)cc(S(C)(=O)=O)n2)c(-c2cccc(C#N)n2)cn1 = >14992 fold
CC(=O)Nc1cc(Nc2cccc(S(C)(=O)=O)c2)c(-c2ccccn2)cn1 = >1011 fold
CC(=O)Nc1cc(Nc2cc(C#N)cc(S(C)(=O)=O)c2)c(-c2ccc(C(C)(C)O)cn2)cn1 = >284 fold
CCOc1cc(Nc2cc(NC(C)=O)ncc2-c2ccc(OCCOC)cn2)nc(S(C)(=O)=O)c1 = >20876 fold
COc1cc(Nc2cc(NC(C)=O)ncc2-c2ccc(C(F)(F)F)cn2)nc(S(C)(=O)=O)c1 = >6896 fold
CC(=O)Nc1cc(Nc2cc(OC(C)C)cc(S(C)(=O)=O)n2)c(-c2ccc(C(C)(C)O)cn2)cn1 = >10649 fold
CC(=O)Nc1cc(Nc2cc(N3CCC(O)C3)cc(S(C)(=O)=O)c2)c(-c2ccc(C(C)(C)O)cn2)cn1 (stereo not shown) = >149 fold

###

Each entry below carries its recorded Selectivity fold (TYK2/JAK2).
- System: JAK2, TYK2/p-STAT4 (Tyr693) activated by IL-12 in NK-92 cell line
- PROTOCOL SUMMARY: IL-12-JAK2, TYK2/p-STAT4 (Tyr693) inhibition IC50 cellular assay
- Assay type: cell-based
- RECORDED CONDITIONS: Cellular assay; pSTAT5/GM-CSF IC50 vs pSTAT4/IL-12 IC50
OBSERVED PROPERTY: Selectivity fold (TYK2/JAK2)

COCc1cc(Nc2cc(NC(C)=O)ncc2-c2ccc(C(C)(C)O)cn2)cc(S(C)(=O)=O)c1 = >1331 fold
CC(=O)Nc1cc(Nc2cc(OCCO)cc(S(C)(=O)=O)n2)c(-c2ccc(C(C)(C)O)cn2)cn1 = >461 fold
CC(=O)Nc1cc(Nc2cc(OC3CCC3)cc(S(C)(=O)=O)n2)c(-c2ccc(C(C)(C)O)cn2)cn1 = >10695 fold
COCc1ccnc(-c2cnc(NC(C)=O)cc2Nc2cccc(S(C)(=O)=O)n2)c1 = >5952 fold
CC(=O)Nc1cc(Nc2cc(C)cc(S(C)(=O)=O)n2)c(-c2ccc(F)cn2)cn1 = >8000 fold
COCCOc1cc(Nc2cc(NC(C)=O)ncc2-c2ccc(C(C)(C)O)cn2)cc(S(C)(=O)=O)c1 = >2044 fold
CC(=O)Nc1cc(Nc2cc(OCCO)cc(S(C)(=O)=O)n2)c(-c2ccc(C(F)(F)F)cn2)cn1 = >7407 fold
CC(=O)Nc1cc(Nc2cccc(S(C)(=O)=O)n2)c(-c2ccc(OC3CCOC3)cn2)cn1 (stereo not drawn) = 3260 fold
CC(=O)Nc1cc(Nc2cc(C)cc(S(C)(=O)=O)n2)c(-c2ccc(C(F)(F)F)cn2)cn1 = >8130 fold
CC(=O)Nc1cc(Nc2cc(C)cc(S(C)(=O)=O)n2)c(-c2ccc(N3C[C@@H](C)O[C@@H](C)C3)cn2)cn1 = 639 fold
COCCOc1ccc(-c2cnc(NC(C)=O)cc2Nc2cc(OCCOC)cc(S(C)(=O)=O)n2)nc1 = >22573 fold
CC(=O)Nc1cc(Nc2cc(C#N)cc(S(C)(=O)=O)n2)c(-c2ccc(C(C)(C)O)cn2)cn1 = >13755 fold
CCS(=O)(=O)c1cc(OC(C)C)cc(Nc2cc(NC(C)=O)ncc2-c2ccc(C(C)(C)O)cn2)n1 = >5128 fold
COCCn1ccc(-c2cnc(NC(C)=O)cc2Nc2cc(C)cc(S(C)(=O)=O)n2)n1 = 5039 fold
CC(=O)Nc1cc(Nc2ccc(F)c(S(C)(=O)=O)n2)c(-c2ccc(C(C)(C)O)cn2)cn1 = >8928 fold
COCc1ccc(-c2cnc(NC(C)=O)cc2Nc2cccc(S(C)(=O)=O)c2)nc1 [Example E1] = >2197 fold
CC(=O)Nc1cc(Nc2cccc(S(C)(=O)=O)n2)c(-c2ccc(N3CCOC(C)(C)C3)cn2)cn1 = 824 fold
CC(=O)Nc1cc(Nc2cc(F)cc(S(C)(=O)=O)c2)c(-c2ccc(C(C)(C)O)cn2)cn1 = >3125 fold
COC1CN(c2cc(Nc3cc(NC(C)=O)ncc3-c3ccc(N4C[C@@H](C)O[C@@H](C)C4)cn3)nc(S(C)(=O)=O)c2)C1 = 1288 fold
CCOc1cc(Nc2cc(NC(C)=O)ncc2-c2ccc(C(C)(C)O)cn2)nc(S(C)(=O)=O)c1 = >22371 fold
COCCOc1ccc(-c2cnc(NC(C)=O)cc2Nc2cc(OC(C)C)cc(S(C)(=O)=O)n2)nc1 = >16863 fold
COCCOc1ccc(-c2cnc(NC(C)=O)cc2Nc2cc(C(F)(F)F)cc(S(C)(=O)=O)c2)nc1 = >2083 fold
CC(=O)Nc1cc(Nc2cc(OC(C)C)cc(S(C)(=O)=O)n2)c(-c2ccn(CCO)n2)cn1 = >10319 fold
COc1cccc(Nc2cc(NC(C)=O)ncc2-c2ccccn2)c1 = >54 fold
COCc1ccc(-c2cnc(NC(C)=O)cc2Nc2cc(COC)cc(S(C)(=O)=O)n2)nc1 = >19960 fold
CC(=O)Nc1cc(Nc2cc(OCC3CC3)cc(S(C)(=O)=O)c2)c(-c2ccc(C(C)(C)O)cn2)cn1 = >3623 fold
CC(=O)Nc1cc(Nc2cc(OC(C)C)cc(S(C)(=O)=O)n2)c(-c2ccc(C#N)cn2)cn1 = >6097 fold
CC(=O)Nc1cc(Nc2cccc(S(C)(=O)=O)n2)c(-c2cccnn2)cn1 = >5405 fold
CC(=O)Nc1cc(Nc2cc(OC(C)C)cc(S(C)(=O)=O)n2)c(-c2ccn(C3CCC3)n2)cn1 = >6535 fold
CC(=O)Nc1cc(Nc2cc(C3CCOCC3)cc(S(C)(=O)=O)n2)c(-c2ccc(N3C[C@@H](C)O[C@@H](C)C3)cn2)cn1 = >10050 fold

###

Each entry below carries its recorded Selectivity fold (TYK2/JAK1).
- SUBJECT OF TEST: TYK2-JH2 (aa 575-869, in-house) protein (Homo sapiens, UniProt P29597)
- Construct: TYK2-JH2 (aa 575-869, in-house) protein; made in house
- Sequence (P29597 575-869): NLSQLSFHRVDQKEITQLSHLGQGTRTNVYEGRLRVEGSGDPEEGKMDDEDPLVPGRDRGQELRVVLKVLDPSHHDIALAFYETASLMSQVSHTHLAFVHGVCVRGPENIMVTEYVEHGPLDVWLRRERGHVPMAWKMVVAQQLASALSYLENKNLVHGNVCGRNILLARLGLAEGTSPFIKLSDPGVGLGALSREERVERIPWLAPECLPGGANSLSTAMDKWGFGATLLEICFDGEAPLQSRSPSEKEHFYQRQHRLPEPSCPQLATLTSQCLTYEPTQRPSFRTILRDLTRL
- PROTOCOL SUMMARY: TYK2-JH2 biochemical assay (HTRF probe displacement)
- Type: binding
- RECORDED CONDITIONS: Biochemical assay; JAK1-JH2 IC50 vs TYK2-JH2 IC50
- Method: Assay A: TYK2-JH2 Biochemical Assay Compounds disclosed herein were tested for blocking of TYK2-JH2 (aa 575-869, in-house) protein with its probe in an assay based on Homogeneous Time Resolved Fluorescence. […] The HTRF signals (ex337 nm, em620 nm/665 nm) were read on BMG PHERAstar FS instrument. The inhibition percentage of TYK2 interaction with its probe in presence of increasing concentrations of compounds was calculated based on the ratio of fluorescence at 615 nm to that at 665 nm. […]
OBSERVED PROPERTY: Selectivity fold (TYK2/JAK1) (fold)

CC(=O)Nc1cc(Nc2cccc(S(C)(=O)=O)c2)c(-c2cnc(C)cn2)cn1 = 113
COc1cccc(Nc2cc(NC(C)=O)ncc2-c2ccccn2)c1 = 42
CS(=O)(=O)c1cccc(Nc2cc(N)ncc2-c2ccccn2)c1 = 14.2
CC(=O)Nc1cc(Nc2cccc(S(C)(=O)=O)c2)c(C2CCCO2)cn1 (stereo not drawn) = 159
CC(=O)Nc1cc(Nc2cccc(S(C)(=O)=O)c2)c(-c2cccnn2)cn1 = 288
CC(=O)Nc1cc(Nc2ccccc2)c(-c2ccccn2)cn1 = 8.1
CC(=O)Nc1cc(Nc2cccc(S(C)(=O)=O)n2)c(-c2ccccn2)cn1 = 19
CC(=O)Nc1cc(Nc2cccc(S(C)(=O)=O)c2)c(-c2cnccn2)cn1 = 120
CS(=O)(=O)c1cccc(Nc2cc(NC(=O)C3CC3)ncc2-c2ccccn2)c1 = 50
CC(=O)Nc1cc(Nc2cccc(S(C)(=O)=O)c2)c(-c2cc(C)nc(C)n2)cn1 = 128
CC(=O)Nc1cc(Nc2cccc(S(C)(=O)=O)c2)c(-c2ccccn2)cn1 = 194
CC(=O)Nc1cc(Nc2ncccc2S(C)(=O)=O)c(-c2ccccn2)cn1 = 1
CC(=O)Nc1cc(Nc2ccccc2S(C)(=O)=O)c(-c2ccccn2)cn1 = 1
CC(=O)Nc1cc(Nc2cccc(S(C)(=O)=O)c2)c(-c2ccc(C(C)(C)O)cn2)cn1 = 87.5

meta.source: patent US20240043435A1
